The reported numbers originate from patent US20090312349A1.

Recorded IC50, one value per entry.
- MEASURED_ON: phosphorylated p-38-alpha kinase (Homo sapiens, UniProt Q16539)
- Sequence (Q16539 1-360 isoform Q16539-2): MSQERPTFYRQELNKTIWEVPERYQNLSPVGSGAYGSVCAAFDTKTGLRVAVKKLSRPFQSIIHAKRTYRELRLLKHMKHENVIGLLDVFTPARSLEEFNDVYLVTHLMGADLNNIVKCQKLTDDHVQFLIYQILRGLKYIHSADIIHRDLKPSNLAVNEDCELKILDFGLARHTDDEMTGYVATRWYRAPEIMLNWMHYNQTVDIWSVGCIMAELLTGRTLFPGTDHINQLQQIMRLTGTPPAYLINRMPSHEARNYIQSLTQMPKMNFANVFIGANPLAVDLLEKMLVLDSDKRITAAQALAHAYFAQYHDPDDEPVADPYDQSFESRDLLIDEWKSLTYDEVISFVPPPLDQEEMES
- MEASUREMENT_DESCRIPTION: P-38 alpha kinase assay P1
- Type: biochemical
- PROTOCOL_CONDITIONS: Method P1; 2 h pre-incubation before ATP

COMPOUND: NC(=O)Cc1cccc(-c2ccc(C(F)(F)F)cc2NC(=O)Nc2ccc(-c3cccc4c3CNC4=O)cc2)c1 [Example 483]
MEASURED_ON: phosphorylated p-38-alpha kinase (Homo sapiens, UniProt Q16539)
IC50 (µM): 0.027
//
COMPOUND: O=C(Cc1cccc(-n2nc(-c3ccccc3F)cc2NC(=O)Nc2cccc(Cl)c2Cl)c1)NC(CO)CO [Example 461]
MEASURED_ON: phosphorylated p-38-alpha kinase (Homo sapiens, UniProt Q16539)
IC50 (µM): 0.03
//
COMPOUND: O=C(Cc1cccc(-n2nc(-c3ccccc3F)cc2NC(=O)Nc2cccc(Cl)c2Cl)c1)NCCO [Example 456]
MEASURED_ON: phosphorylated p-38-alpha kinase (Homo sapiens, UniProt Q16539)
IC50 (µM): 0.015
//
COMPOUND: CC(C)(C)c1cc(NC(=O)Nc2cccc(F)c2F)n(-c2cccc(CC(N)=O)c2)n1 [Example 495]
MEASURED_ON: phosphorylated p-38-alpha kinase (Homo sapiens, UniProt Q16539)
IC50 (µM): 0.038
//
COMPOUND: O=C(O)Cc1ccc(-n2nc(-c3ccsc3)cc2NC(=O)Nc2cccc(Cl)c2Cl)cc1 [Example 444]
MEASURED_ON: phosphorylated p-38-alpha kinase (Homo sapiens, UniProt Q16539)
IC50 (µM): 0.006
//
COMPOUND: O=C(O)Cc1cccc(-n2nc(-c3cccc(F)c3)cc2NC(=O)Nc2cccc(Cl)c2Cl)c1 [Example 432]
MEASURED_ON: phosphorylated p-38-alpha kinase (Homo sapiens, UniProt Q16539)
IC50 (µM): 0.011
//
COMPOUND: CC(C(=O)O)c1ccc(-n2nc(-c3cccs3)cc2NC(=O)Nc2cccc(Cl)c2Cl)cc1 (stereo not shown) [Example 443]
MEASURED_ON: phosphorylated p-38-alpha kinase (Homo sapiens, UniProt Q16539)
IC50 (µM): 0.03
//
COMPOUND: CNC(=O)c1cc(Oc2ccc(NC(=O)Nc3cc(C(C)(C)C)nn3-c3cccc(CC(N)=O)c3)cc2)ccn1 [Example 506]
MEASURED_ON: phosphorylated p-38-alpha kinase (Homo sapiens, UniProt Q16539)
IC50 (µM): 0.009
//
COMPOUND: CC(C)(C)c1cc(NC(=O)Nc2cc(F)c(F)cc2F)n(-c2cccc(CC(N)=O)c2)n1 [Example 494]
MEASURED_ON: phosphorylated p-38-alpha kinase (Homo sapiens, UniProt Q16539)
IC50 (µM): 0.068
//
COMPOUND: O=C(O)Cc1cccc(-n2nc(C3CCCC3)cc2NC(=O)Nc2cccc(Cl)c2Cl)c1 [Example 434]
MEASURED_ON: phosphorylated p-38-alpha kinase (Homo sapiens, UniProt Q16539)
IC50 (µM): 0.004
//
COMPOUND: NC(=O)Cc1ccc(-n2nc(C3CCCC3)cc2NC(=O)Nc2cccc(Cl)c2Cl)cc1 [Example 467]
MEASURED_ON: phosphorylated p-38-alpha kinase (Homo sapiens, UniProt Q16539)
IC50 (µM): 0.011
//
COMPOUND: O=C(O)Cc1ccc(-n2nc(C3CCCC3)cc2NC(=O)Nc2cccc(Cl)c2Cl)cc1 [Example 441]
MEASURED_ON: phosphorylated p-38-alpha kinase (Homo sapiens, UniProt Q16539)
IC50 (µM): 0.005
//
COMPOUND: CC(C)(C)c1cc(NC(=O)Nc2ccc(F)cc2F)n(-c2cccc(C#N)c2)n1 [Example 499]
MEASURED_ON: phosphorylated p-38-alpha kinase (Homo sapiens, UniProt Q16539)
IC50 (µM): 0.046
